test system: CSNK1D; details: concentration: 1 μM, replicates: in singlicate; n = 1;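 further: KINOMEscan kinase panel screen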
PROPERTY MEASURED: %Inh (%)

| COMPOUND | UNIT ANNOTATION | REPORTED RESULT |
| --- | --- | --- |
| Cc1c2ccc(N(C)c3ccnc(Nc4cccc(S(N)(=O)=O)c4)n3)cc2nn1Cc1ccccc1.Cl.Cl | % | 0 |
| CN(C1=C(c2ccccc2)C(=O)NC1=O)c1ccccc1 | % | 19 |
| O=c1cc(N2CCOCC2)nc2n(Cc3cccc(F)c3)ccn12 | % | 15 |
| COc1cc2c(cc1OCCN1CCN(C)CC1)ncc1c3ccc(C#N)cc3[nH]c21 | % | 18 |
| Cc1nnc(-c2ccc3ncc(-c4ccc(S(C)=O)cc4)n3c2)o1 (stereo not drawn) | % | 0 |
| O=C1NC(=O)C(N2CCc3ccccc32)=C1c1cccc(Cl)c1 | % | 0 |
| Nc1nccc(-c2c(-c3ccc(F)cc3)ncn2C2CCN(CC(F)(F)F)CC2)n1 | % | 86 |
| Fc1ccc(-c2ncn(CCCN3CCOCC3)c2-c2cccnc2)cc1 | % | 4 |
| O=C(Nc1cccc(-c2nn3ncccc3c2-c2ccnc(Nc3cccc(C(F)(F)F)c3)n2)c1)c1c(F)cccc1F | % | 12 |

---

tested on: STK39; conditions: concentration: 1 μM, replicates: in singlicate; n = 1
Could you please mark label 1 for values of %Inh below 5% and label 0 for values at or above it?

| COMPOUND | ASSIGNED LABEL |
| --- | --- |
| Cc1cn2c(=O)cc(N3CCOCC3)nc2n1Cc1cccc(Cl)c1Cl | label 0 |
| COc1ccc(Nc2nccc(N3CCC(NC(=O)Nc4cccc(C(C)=O)c4)C3)n2)cc1 (stereo not drawn) | label 1 |
| COc1cc2c(cc1OCCN1CCN(C)CC1)ncc1c3ccc(C#N)cc3[nH]c21 | label 0 |
| O=C(c1ccc(-c2cc(-c3c[nH]nc3-c3ccccn3)ccn2)cc1)N1CCOCC1 | label 0 |
| CCn1cnc2c(N)ncnc21 | label 1 |
| O=c1cc(N2CCOCC2)nc2n(Cc3cccc(F)c3)ccn12 | label 1 |
| CC(C)(C)n1cnc2c(N)ncnc21 | label 1 |
| Cc1c(Cn2c(C)nn3c(=O)cc(N4CCOC(C)C4)nc23)cccc1C(F)(F)F (stereo not drawn) | label 0 |

---

tested on: ERBB2; conditions: concentration: 1 μM, replicates: in singlicate; n = 1
Collected %Inh values appear next to each entry.
PROPERTY MEASURED: %Inh (%)

| COMPOUND | TARGET OR TEST SYSTEM | PROPERTY MEASURED | UNIT ANNOTATION | REPORTED RESULT |
| --- | --- | --- | --- | --- |
| N#Cc1ccc(-c2cc(-c3c[nH]nc3-c3ccccn3)ccn2)cc1 [GW693028] | ERBB2 | %Inh | % | 28 |
| Fc1ccc(-c2ncn(CCCN3CCOCC3)c2-c2cccnc2)cc1 [SB-211743] | ERBB2 | %Inh | % | 0 |
| NS(=O)(=O)c1cccc(-c2ccc3nccc(-c4cccc(S(N)(=O)=O)c4)c3c2)c1 [GW867253] | ERBB2 | %Inh | % | 11 |
| c1ccc(-c2cc(-c3c[nH]nc3-c3ccccn3)ccn2)cc1 [GW576604] | ERBB2 | %Inh | % | 0 |
| COCCNC(=O)c1ccc(-c2cc(C(=O)NC3CC3)cc(F)c2C)cc1 [GW868318] | ERBB2 | %Inh | % | 13 |

---

Collected %Inh values appear next to each entry.
system: RPS6KA5(Kin.Dom.1-N-terminal); conditions: concentration: 1 μM, replicates: in singlicate; n = 1

| SMILES STRUCTURE | %Inh / % |
| --- | --- |
| CN1c2ccc(CNc3ccc(F)cc3)cc2-c2c(cnn2C)S1(=O)=O | 0 |
| C[C@@H](Oc1cc(-n2cnc3ccc(NC(=O)NC(C)(C)C)cc32)sc1C(N)=O)c1ccccc1Cl | 13 |
| CC(C)(C)n1cnc2c(N)ncnc21 | 0 |
| O=C(NCCCN1CCOCC1)c1cccc(Nc2nccc(Nc3ccc(Oc4ccccc4)cc3)n2)c1 | 0 |
| Cc1ccc(NC(=O)c2ccnc(N3CCN(C)CC3)c2)cc1-c1ccc(C(=O)NCC2CC2)cc1 | 0 |
| CCCCCc1nc2c(N)ncnc2n1CCCCC | 14 |
| N#Cc1ccc(-c2cc(-c3c[nH]nc3-c3ccccn3)ccn2)cc1 | 19 |
| Cc1c2ccc(N(C)c3ccnc(Nc4cccc(S(N)(=O)=O)c4)n3)cc2nn1Cc1ccccc1.Cl.Cl | 0 |
| O=c1cc(N2CCOCC2)nc2n(Cc3cccc(C(F)(F)F)c3)ccn12 | 4 |

---

tested on: FLT3; details: concentration: 1 μM, replicates: in singlicate; n = 1
Collected %Inh values appear next to each entry.

| MOLECULE | %Inh [%] |
| --- | --- |
| Cn1ccc2ncnc(Oc3ccc(NC(=O)Nc4ccncc4)c(Cl)c3)c21 | 0 |
| CN1c2ccc(CNc3ccc(F)cc3)cc2-c2c(cnn2C)S1(=O)=O | 36 |
| COc1ccc(S(=O)(=O)NC2CCN(c3cc(C)nc(Nc4cccc(C#N)c4)n3)CC2)cc1.O=C(O)C(F)(F)F | 0 |
| COc1cc2c(cc1OC[C@@H](O)CO)ncc1c3ccc(C#N)cc3[nH]c21 | 97.5 |
| O=C1NC(=O)C(N2CCc3ccccc32)=C1c1cccc(Cl)c1 | 0 |
| COc1ccc(Nc2nccc(N3CCC(NC(=O)Nc4cccc(C(C)=O)c4)C3)n2)cc1 (stereo not drawn) | 34 |
| Fc1ccc(-c2nn3c(OCC(F)(F)F)cccc3c2-c2ccncc2)cc1 | 4 |
| Cc1nnc(-c2ccc(C)c(-c3ccc(C(=O)Nc4ccc(NS(C)(=O)=O)cc4)cc3)c2)o1 | 0 |
| O=C(NOCC1CC1)c1ccc(F)c(F)c1Nc1ccc(I)cc1Cl | 0 |

---

Collected %Inh values appear next to each entry.
tested on: FGR; details: concentration: 1 μM, replicates: in singlicate; n = 1
PROPERTY MEASURED: %Inh (%)

| COMPOUND | TARGET OR TEST SYSTEM | UNIT ANNOTATION | REPORTED RESULT |
| --- | --- | --- | --- |
| Cc1c(Cn2c(C)nn3c(=O)cc(N4CCOC(C)C4)nc23)cccc1C(F)(F)F (stereo not shown) | FGR | % | 0 |
| O=C(NCCNc1ccnc(Nc2ccc(F)cc2)n1)Nc1ccccc1F | FGR | % | 3 |
| N#Cc1c(N2CCOCC2)sc(-c2ccn[nH]2)c1-c1ccc(Cl)cc1 | FGR | % | 22 |
| O=C1Cc2cc(Nc3nc(NCc4cccc(S(=O)(=O)C(F)(F)F)c4)ncc3C(F)(F)F)ccc2N1 | FGR | % | 0 |
| Cc1ccc(NC(=O)c2ccnc(N3CCN(C)CC3)c2)cc1-c1ccc(C(=O)NCC2CC2)cc1 | FGR | % | 8 |
| Cc1cccc(Cn2ccn3c(=O)cc(N4CCOCC4)nc23)c1 | FGR | % | 32 |
| CC(=O)Nc1ccc(COc2ccc(Nc3ccnc4cc(-c5ccccn5)ccc34)cc2)cc1.Cl | FGR | % | 36 |
| COc1ccc(Nc2nccc(N3CCC(NC(=O)Nc4cc(C)ccc4C)C3)n2)cc1 (stereo not shown) | FGR | % | 5 |
| c1ccc(-c2n[nH]cc2-c2ccnc3ccccc23)nc1 | FGR | % | 26 |
| CSc1ccc(-c2cc3ncnc(SCC(=O)O)c3s2)cc1 | FGR | % | 23 |
| O=C(NCCNc1ccnc(Nc2ccc(F)cc2)n1)c1cc2ccccc2s1 | FGR | % | 15 |
| O=C(NCCCN1CCOCC1)c1cccc(Nc2nccc(Nc3ccc(Oc4ccccc4)cc3)n2)c1 | FGR | % | 93.4 |
| CN1c2ccc(CNc3ccc(F)cc3)cc2-c2c(cnn2C)S1(=O)=O | FGR | % | 0 |
| NS(=O)(=O)CCc1cccc(Nc2nccc(-c3c(-c4cccc(NC(=O)c5c(F)cccc5F)c4)nn4ccccc34)n2)c1 | FGR | % | 98.8 |
| Cc1cn2c(=O)cc(N3CCOCC3)nc2n1Cc1cccc(Cl)c1Cl | FGR | % | 51 |
| O=C(Nc1cccc(-c2nn3ncccc3c2-c2ccnc(Nc3cccc(C(F)(F)F)c3)n2)c1)c1c(F)cccc1F | FGR | % | 95.5 |

---

system: ACVR2B; conditions: concentration: 1 μM, replicates: in singlicate; n = 1
Could you please mark Satisfied for values of %Inh below 7% and Not satisfied for values at or above it?

| COMPOUND | TARGET OR TEST SYSTEM | ASSIGNED LABEL |
| --- | --- | --- |
| O=C(NCCNc1ccnc(Nc2ccc(F)cc2)n1)Nc1ccccc1F | ACVR2B | Satisfied |
| CN(C(=O)c1ccc(-c2cc(-c3c[nH]nc3-c3ccccn3)ccn2)cc1)C1CCOCC1 | ACVR2B | Satisfied |
| CCCCCc1nc2c(N)ncnc2n1CCCCC | ACVR2B | Satisfied |
| O=c1cc(N2CCOCC2)nc2n(Cc3cccc(C(F)(F)F)c3)ccn12 | ACVR2B | Satisfied |
| CC(C)Oc1ccc2c(-c3ccnc(Nc4ccc(N5CCN(C)CC5)cc4)n3)cnn2n1 | ACVR2B | Satisfied |
| COc1ccc(Nc2nccc(N3CCC(NC(=O)Nc4cccc(C(C)=O)c4)C3)n2)cc1 (stereo not drawn) | ACVR2B | Not satisfied |
| [2H]C([2H])(c1cccc(C(F)(F)F)c1C)n1ccn2c(=O)nc(N3CCOCC3)cc12 | ACVR2B | Satisfied |
| O=C(Nc1cccc(-c2nn3ncccc3c2-c2ccnc(Nc3cccc(C(F)(F)F)c3)n2)c1)c1c(F)cccc1F | ACVR2B | Satisfied |
| Cc1ccc(C(=O)NCC(N)=O)cc1-n1c(C)cc(OCc2ccc(F)cc2F)c(Br)c1=O | ACVR2B | Satisfied |
| O=C(Nc1n[nH]c2cc(-c3cccc(F)c3)ccc12)C1CC1 | ACVR2B | Not satisfied |
| Cc1nnc(-c2ccc(C)c(-c3ccc(C(=O)Nc4ccc(NS(C)(=O)=O)cc4)cc3)c2)o1 | ACVR2B | Satisfied |
| O=C(NCCCN1CCOCC1)c1cccc(Nc2nccc(Nc3ccc(Oc4ccccc4)cc3)n2)c1 | ACVR2B | Satisfied |
| CCn1cnc2c(N)ncnc21 | ACVR2B | Satisfied |
| Cc1nnc(-c2ccc3occ(-c4ccc(C(C)O)cc4)c3c2)o1 (stereo not drawn) | ACVR2B | Not satisfied |
| CCc1nc(-c2cccc(C)c2)c(-c2ccnc(NCc3ccccc3)c2)s1 | ACVR2B | Satisfied |
| Cl.Oc1cccc(Nc2ccnc3cc(-c4ccncc4)ccc23)c1 | ACVR2B | Not satisfied |
| COc1cc(Nc2nccc(N3CCC(NC(=O)c4cccc(NC(C)=O)c4)C3)n2)cc(OC)c1OC (stereo not drawn) | ACVR2B | Not satisfied |

Reference source: paper PMC5540273
